These measurements were taken from paper PMC12137140.

molecular target: FIKK8 (Plasmodium falciparum); construct: recombinant FIKK8 kinase domain; experiment: biochemical
Sequence (C0H4R8 entry or part of it): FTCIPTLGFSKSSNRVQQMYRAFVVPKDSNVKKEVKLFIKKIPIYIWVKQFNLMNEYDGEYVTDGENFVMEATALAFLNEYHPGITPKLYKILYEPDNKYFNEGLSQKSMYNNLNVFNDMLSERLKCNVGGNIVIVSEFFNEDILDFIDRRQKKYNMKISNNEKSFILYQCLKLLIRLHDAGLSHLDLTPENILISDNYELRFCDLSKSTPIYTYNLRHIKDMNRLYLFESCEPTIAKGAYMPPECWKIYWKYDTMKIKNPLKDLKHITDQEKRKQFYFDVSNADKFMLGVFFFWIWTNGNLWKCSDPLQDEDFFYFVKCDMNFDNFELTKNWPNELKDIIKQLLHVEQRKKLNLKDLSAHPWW
pIC50: −log10 of the molar value.
Items are presented alongside their recorded pIC50.
MEASUREMENT_TYPE: pIC50

COc1ccc(Nc2ncc(C#N)c(Nc3ccccc3C(N)=O)n2)cc1N1CCN(C)CC1 [GSK1558669A] = 7.05
CN1CCC(n2cnc(-c3ccc(F)cc3)c2-c2ccnc(NCCO)n2)CC1 [SB-226879] = 6.75
O=c1[nH]ccc2nc(N[C@@H]3CCCNC3)nc(Nc3ccc(S(=O)(=O)N4CCOCC4)cc3)c12 [GSK2177277A] = 7.32
O=c1[nH]ccc2nc(N[C@@H]3CCNC3)nc(Nc3cc(Cl)cc(Cl)c3)c12 [GSK2188764A] = 7.22
